Give solubility for every item shown.
Test: Aqueous solubility study in Britton-Robinson's buffer (HPLC-UV)
Assay type: physicochemical
Details: aqueous buffer, thermodynamic from solid; pH 8.16, Britton-Robinson's buffer, ambient temperature overnight
The response must be a number in µg/mL with no trailing unit.

Give the reported solubility for this molecule. CNc1cccc(NC(=O)NC2N=C(c3ccccn3)c3ccccc3N(CC(=O)C(C)(C)CO)C2=O)c1 (racemic) [TR1] 7.81

Give the reported solubility for this molecule. CNc1cccc(NC(=O)N[C@@H]2N=C(c3ccccn3)c3ccccc3N(CC(=O)C(C)(C)C)C2=O)c1 [YF476, reference compound] 1.5

###

Experiment: Aqueous solubility study in Britton-Robinson's buffer (HPLC-UV)
Assay type: physicochemical
Conditions: pH 6.98, aqueous buffer, thermodynamic from solid, pH 6.98, Britton-Robinson's buffer, ambient temperature overnight
Protocol: The test compound (2.5 mg of solid; n=1) was weighed in a clear glass vial and Britton-Robinson's buffer (0.5 mL) was added (pH 2.01, pH 3.06, pH 4.06, pH 5.08, pH 5.99, pH 6.98, and pH 8.16). The solution was agitated at ambient temperature overnight using a vial roller system, and then filtered (0.45 μm pore size; without pre-saturation). […] The concentration of test compound in the filtrate was quantified relative to the concentration standard. […]
measuredParameter: solubility (µg/mL)
The response must be a number in µg/mL with no trailing unit.

Give the reported solubility for this compound. CNc1cccc(NC(=O)N[C@@H]2N=C(c3ccccn3)c3ccccc3N(CC(=O)C(C)(C)COC(C)=O)C2=O)c1 51
